Ref: patent US20230287125A1

Target: T1, human PD-L1-his tag protein (human, UniProt Q9NZQ7 19-238)
T1 construct: also called human PD-L1-His protein; recombinant PD-L1 protein; not shown: his tag
T1 sequence (Q9NZQ7 19-238 limits assumed): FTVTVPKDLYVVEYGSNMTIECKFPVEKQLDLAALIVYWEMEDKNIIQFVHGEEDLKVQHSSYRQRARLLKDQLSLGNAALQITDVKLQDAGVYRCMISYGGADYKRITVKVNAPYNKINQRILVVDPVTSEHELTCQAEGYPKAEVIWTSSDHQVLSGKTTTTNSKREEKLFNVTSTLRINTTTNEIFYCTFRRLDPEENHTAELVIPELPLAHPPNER
Assay: SPR (Biacore), affinity ranking, PDL1-His
Listed binders paired with reported koff
Provide only the numeric value, understood in s⁻¹.

>>> result("Hu67F3G7-9 (antibody, V domains shown, humanized) VH: EVQLVQSGAEVKKPGASVKVSCKASGYIFTDFWVSWVRQAPGQGLEWIGEIYPNSGVSRYNEKFKGRVTMTVDKSISTAYMELSRLRSDDTAVYYCARYFGYTYWFGYWGQGTLVTVSS VL: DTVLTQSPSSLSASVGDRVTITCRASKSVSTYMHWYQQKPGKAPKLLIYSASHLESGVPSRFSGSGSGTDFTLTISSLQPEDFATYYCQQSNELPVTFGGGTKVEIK")
0.0001

GET /values?readout=koff&item= Hu89C10H8-2 (antibody, V domains shown, humanized) VH: EVQLVESGGGLVKPGGSLRLSCAASGFTFSNYWMTWVRQAPGKGLEWVASITNTGSSTFYPDSVKGRFTISRDNAKNSLYLQMNSLRAEDTAVYYCTRDTTIAPFDYWGQGTMVTVSS VL: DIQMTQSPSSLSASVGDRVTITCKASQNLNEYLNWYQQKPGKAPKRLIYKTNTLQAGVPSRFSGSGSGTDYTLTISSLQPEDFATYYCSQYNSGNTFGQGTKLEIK
8.51e-05

For Hu67F3G7-13 (antibody, V domains shown, humanized) VH: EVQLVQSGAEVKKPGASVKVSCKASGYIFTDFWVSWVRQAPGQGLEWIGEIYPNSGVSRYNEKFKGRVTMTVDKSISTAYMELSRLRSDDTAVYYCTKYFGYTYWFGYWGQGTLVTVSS VL: DTVLTQSPSSLSASVGDRVTITCRASKSVSTYMHWYQQKPGKQPKLLIYSASHLESGVPSRFSGSGSGTDFTLTISSLQPEDFATYYCQQSNELPVTFGGGTKVEIK then?
9.54e-05

What about Hu67F3G7-2 (antibody, V domains shown, humanized) VH: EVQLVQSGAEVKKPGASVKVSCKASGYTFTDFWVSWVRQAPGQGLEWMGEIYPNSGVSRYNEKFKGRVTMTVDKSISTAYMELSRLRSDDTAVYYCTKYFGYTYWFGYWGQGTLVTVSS VL: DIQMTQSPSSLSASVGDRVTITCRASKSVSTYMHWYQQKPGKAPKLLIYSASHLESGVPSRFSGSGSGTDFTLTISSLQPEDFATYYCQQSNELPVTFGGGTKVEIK ?
9.75e-05

Try the binder Hu67F3G7-3 (antibody, V domains shown, humanized) VH: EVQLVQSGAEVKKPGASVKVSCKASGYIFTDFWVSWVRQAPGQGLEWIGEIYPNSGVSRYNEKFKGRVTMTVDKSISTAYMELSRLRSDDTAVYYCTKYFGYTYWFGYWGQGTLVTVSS VL: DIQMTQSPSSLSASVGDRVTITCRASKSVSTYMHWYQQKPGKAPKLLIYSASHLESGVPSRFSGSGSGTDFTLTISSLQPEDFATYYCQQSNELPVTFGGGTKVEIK
9.72e-05
